Cited source for all entries: ChEMBL document CHEMBL1153201

- assay-comment: Half life in mouse at 4.8 mg/kg
- Format: ADME, organism-based
- Design: dose 4.8 mg/kg
- cond: in vivo
readout-label: half-life (h)

• Cc1cc(S(=O)(=O)NC(=O)Nc2ncc(Br)s2)ccc1-c1ccc(F)nc1 = 8.1

----------
- assay-comment: Aqueous solubility of the compound
- Type: physicochemical
readout-label: solubility (µg/mL)

- Cc1cc(S(=O)(=O)NC(=O)Nc2ncc(Br)s2)ccc1-c1ccc(F)nc1: 465

----------
- assay-comment: Ratio of drug level in liver to plasma in mouse
- Type: ADME, tissue-based
- cond: liver and plasma
readout-label: Kp

- Cc1cc(S(=O)(=O)NC(=O)Nc2ncc(Br)s2)ccc1-c1ccc(F)nc1: 0.6
